# System: Hela
# assay_details: MTT cell viability assay, Hela
# Assay type: cell-based
# test_context: Homo sapiens, HeLa, 48 h, read-out: IC50(μM) Hela, MTT, 48 h, Hela
Listed next: entries and their corresponding IC50.

molecule | IC50
COc1cc(OC)c(C(=O)/C=C/c2ccc(OCC3CCCCC3)cc2)c(OC)c1 [C3] | > 100 µM
COc1cc(OC)c(C(=O)/C=C/c2ccc(OCc3cnc4ccccc4c3)cc2)c(OC)c1 [C9] | > 100 µM
COc1cc(OC)c(C(=O)/C=C/c2cc3cc(F)ccc3[nH]c2=O)c(OC)c1 [B16] | 18.1 µM
COc1cc(OC)c(C(=O)/C=C/c2ccc(OCc3ccccn3)cc2)c(OC)c1 [C6] | > 100 µM
